Cited source for all entries: paper PMC6270839

assay-info: Chemical stability of the prodrugs in PBS (HPLC)
Type: physicochemical
experimental-conditions: PBS pH 4.6, 37 °C, 12 h
recorded-endpoint: Remaining Prodrugs 12 h pH 4.6 (%)
Numbers only; they are read as %.

Before answering, review these 4 worked examples.
CCc1c2c(nc3ccc(OC(=O)NC(C)C(=O)N[C@@H](CC(=O)O)C(=O)O)cc13)-c1cc3c(c(=O)n1C2)COC(=O)[C@]3(O)CC (some centres unmarked) | 94.5
CCc1c2c(nc3ccc(OC(=O)N[C@H](CC(=O)O)C(=O)O)cc13)-c1cc3c(c(=O)n1C2)COC(=O)[C@]3(O)CC | 94.5
CCc1c2c(nc3ccc(OC(=O)NCC(=O)O)cc13)-c1cc3c(c(=O)n1C2)COC(=O)[C@]3(O)CC | 98.4
CCc1c2c(nc3ccc(OC(=O)NCC(=O)N[C@H](CC(=O)O)C(=O)O)cc13)-c1cc3c(c(=O)n1C2)COC(=O)[C@]3(O)CC | 96.8

Then this compound:
Form field Remaining Prodrugs 12 h pH 4.6, entry CCc1c2c(nc3ccc(OC(=O)NCC(=O)N[C@@H](CC(=O)O)C(=O)O)cc13)-c1cc3c(c(=O)n1C2)COC(=O)[C@]3(O)CC : 96.9
